Exercise: for every item that follows, state its recorded Positive Rate (EGFP).
tested on: DC2.4 cells; assay: In vitro transfection of DC2.4 cells with EGFP mRNA LNP preparation (flow cytometry); type: cell-based, mouse; details: DC2.4 cells, EGFP mRNA LNP, 200 ng mRNA per well, flow cytometry
Express it in %; write the number only.

Entry CCCCCCCCCCCCCCC(O)CN(CCN(CCN1CCN(CCO)CC1)CCN(CC(O)CCCCCCCCCCCCCC)CC(O)CCCCCCCCCCCCCC)CC(O)CCCCCCCCCCCCCC (stereo not drawn) [I-C16] — recorded Positive Rate (EGFP) = 68.7

Notebook: CCCCCCCCCCCCCCCCC(O)CN(CCOCCOCCOCCN(CCOCCOCCOCCN(CC(O)CCCCCCCCCCCCCCCC)CC(O)CCCCCCCCCCCCCCCC)CCN1CCN(CCO)CC1)CC(O)CCCCCCCCCCCCCCCC [L-C18] , Positive Rate (EGFP) read as 59.7

Sure, the documented Positive Rate (EGFP) for CCCCCCCCCCCCC(O)CN(CCOCCOCCN(CCOCCOCCN(CC(O)CCCCCCCCCCCC)CC(O)CCCCCCCCCCCC)CCN1CCN(CCO)CC1)CC(O)CCCCCCCCCCCC (stereo not drawn) [K-C14] is 59.8

---

system: DC2.4 cells; test: In vitro transfection of DC2.4 cells with EGFP mRNA LNP preparation (flow cytometry); format: cell-based, mouse; details: DC2.4 cells, EGFP mRNA LNP, 200 ng mRNA per well, flow cytometry
Hi there, I'd appreciate the recorded Positive Rate (EGFP) for every entry that follows.
Numbers only here, please. The scale is %.

Log: DC2.4 cells, compound CCCCCCCCCCCCCCC(O)CN(CCOCCOCCOCCN(CCOCCOCCOCCN(CC(O)CCCCCCCCCCCCCC)CC(O)CCCCCCCCCCCCCC)CCN1CCN(CCOCCOCCOCCN(CC(O)CCCCCCCCCCCCCC)CC(O)CCCCCCCCCCCCCC)CC1)CC(O)CCCCCCCCCCCCCC (stereo not shown) , Positive Rate (EGFP) = 71.7

Summary line: CCCCCCCCCCC(O)CN(CCOCCOCCN(CCOCCOCCN(CC(O)CCCCCCCCCC)CC(O)CCCCCCCCCC)CCN1CCN(C)CC1)CC(O)CCCCCCCCCC (stereo not shown) , DC2.4 cells, reported Positive Rate (EGFP) = 83.1

// compound CCCCCCCCCCCCCCCCC(O)CN(CCOCCOCCOCCN(CCOCCOCCOCCN(CC(O)CCCCCCCCCCCCCCCC)CC(O)CCCCCCCCCCCCCCCC)CCN1CCN(C)CC1)CC(O)CCCCCCCCCCCCCCCC (stereo not shown) , assay DC2.4 cells, Positive Rate (EGFP) value: 81.9

Log: DC2.4 cells, compound CCCCCCCCCCCCC(O)CN(CCOCCN(CCOCCN(CC(O)CCCCCCCCCCCC)CC(O)CCCCCCCCCCCC)CCN1CCN(CCO)CC1)CC(O)CCCCCCCCCCCC (stereo not shown) , Positive Rate (EGFP) = 59.1

---

test: Entrapment efficiency of LNP preparation encapsulating EGFP mRNA; type: physicochemical; conditions: LNP ionizable lipid/DOPE/cholesterol/DSPE-PEG2000 35/16/46.5/2.5 mol% encapsulating EGFP mRNA
Classify: satisfied when Entrapment Efficiency is strictly less than 90%; not satisfied when Entrapment Efficiency is not.

Answer whether the compound CCCCCCCCCCCCCCCCC(O)CN(CCOCCOCCN(CCOCCOCCN(CC(O)CCCCCCCCCCCCCCCC)CC(O)CCCCCCCCCCCCCCCC)CCN1CCN(C)CC1)CC(O)CCCCCCCCCCCCCCCC (stereo not shown) has Entrapment Efficiency strictly less than 90%
satisfied

Decide: Entrapment Efficiency of CCCCCCCCCCCCC(O)CN(CCOCCN(CCOCCN(CC(O)CCCCCCCCCCCC)CC(O)CCCCCCCCCCCC)CCN1CCN(CCOCCN(CC(O)CCCCCCCCCCCC)CC(O)CCCCCCCCCCCC)CC1)CC(O)CCCCCCCCCCCC (stereo not shown) strictly below 90%?
not satisfied

Criterion: Entrapment Efficiency strictly below 90%. Is it met by CCCCCCCCCCCCCCCCC(O)CN(CCOCCOCCN(CCOCCOCCN(CC(O)CCCCCCCCCCCCCCCC)CC(O)CCCCCCCCCCCCCCCC)CCN1CCN(CCO)CC1)CC(O)CCCCCCCCCCCCCCCC (stereo not shown) ?
not satisfied

Answer whether the compound CCCCCCCCCCCCCCC(O)CN(CCOCCOCCOCCN(CCOCCOCCOCCN(CC(O)CCCCCCCCCCCCCC)CC(O)CCCCCCCCCCCCCC)CCN1CCN(CCOCCOCCOCCN(CC(O)CCCCCCCCCCCCCC)CC(O)CCCCCCCCCCCCCC)CC1)CC(O)CCCCCCCCCCCCCC (stereo not shown) has Entrapment Efficiency strictly less than 90%
satisfied
